assay.target: Circumsporozoite protein (CSP) (Plasmodium falciparum (isolate 3D7), UniProt Q7K740)
Sequence (Q7K740 19-374): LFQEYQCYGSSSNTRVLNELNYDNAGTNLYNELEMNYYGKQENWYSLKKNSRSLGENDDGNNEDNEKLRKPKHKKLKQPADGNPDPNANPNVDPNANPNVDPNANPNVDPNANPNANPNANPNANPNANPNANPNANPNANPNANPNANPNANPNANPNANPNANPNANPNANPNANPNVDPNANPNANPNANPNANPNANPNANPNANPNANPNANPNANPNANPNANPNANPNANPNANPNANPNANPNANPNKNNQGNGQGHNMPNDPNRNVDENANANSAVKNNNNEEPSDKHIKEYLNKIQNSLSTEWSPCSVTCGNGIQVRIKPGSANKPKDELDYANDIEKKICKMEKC
experiment.notes: AVEXIS screen signal:noise (double-corrected)
binding score reference
In your answer, state the number alone without any accompanying words.

Consider the following illustrative entries.
ADP107 (protein, bait human Fc-tagged dimer) MGTKAQVERKLLCLFILAILLCSLALGSVTVHSSEPEVRIPENNPVKLSCAYSGFSSPRVEWKFDQGDTTRLVCYNNKITASYEDRVTFLPTGITFKSVTREDTGTYTCMVSEEGGNSYGEVKVKLIVLVPPSKPTVNIPSSATIGNRAVLTCSEQDGSPPSEYTWFKDGIVMPTNPKSTRAFSNSSYVLNPTTGELVFDPLSASDTGEYSCEARNGYGTPMTSNAVRMEAVERNVGV
0.991
ADP121 (protein, bait human Fc-tagged dimer) MGTLLLVLWLATRGSALYFHIGETEKKCFIEEIPDETMVIGNYRTQLYDKQREEYQPATPGLGMFVEVKDPEDKVILARQYGSEGRFTFTSHTPGEHQICLHSNSTKFSLFAGGMLRVHLDIQVGEHANDYAEIAAKDKLSELQLRVRQLVEQVEQIQKEQNYQRWREERFRQTSESTNQR
0.979

With those in mind, consider the next binder.
Prompt: Item ADP288 (protein, also: human Fc-tagged dimer) MDHSHHMGMSYMDSNSTMQPSHHHPTTSASHSHGGGDSSMMMMPMTFYFGFKNVELLFSGL has what recorded binding score?
Completion: 0.576

Hey, just so you know, these numbers are from paper PMC11098746.
